What Papp at 2 h, 3 µM was measured for each of the following?
TEST NAME: Caco Permeability Assay
Assay type: in vitro ADME
CONDITION PARAMETERS: human, Caco-2, Caco-2 cells, 3 μM compound
Please give a number only; it is taken to be in ×10⁻⁶ cm/s.

query: Please give the measured Papp at 2 h, 3 µM for this compound: CC(C)Nc1cc(-c2cnc3cc(Cl)cnn23)ncc1C(=O)NC[C@@H](F)C(C)(C)O [Example 142]
result: 19

query: Same again, this time with CC(C)(O)[C@H](F)CNC(=O)c1cnc(-c2cnn3cc(Cl)cnc23)cc1NC1CC1 [Example 22]
result: 16.2

query: Can you handle CC(C)(F)Cn1cc(Nc2cc(-c3cnn4cc(C#N)cnc34)ncc2C(=O)NC[C@@H](F)C(C)(C)O)cn1 [Example 235] next?
result: 2.3

query: Next up: CC(C)(O)[C@H](F)CNC(=O)c1cnc(-c2cnn3cc(Cl)cnc23)cc1NC1CCC(F)C1 (stereo partly drawn) [Example 83]
result: 15.9

query: Same lookup for CC(C)(O)[C@H]1CC[C@H](Nc2cc(-c3cnn4cc(Cl)cnc34)ncc2C(=O)NC[C@@H](F)C(C)(C)O)C1 [Example 50] , please.
result: 3

query: Input CC(C)(O)[C@H](F)CNC(=O)c1cnc(-c2cnn3cc(C#N)cnc23)cc1N[C@@H]1CCC[C@@H]1F [Example 105]
result: 8.6

query: Do the same for CC(C)(O)[C@H](F)CNC(=O)c1cnc(-c2cnn3cc(Cl)cnc23)cc1NC1COC1 [Example 5] please
result: 17.5

query: Try this compound too: CC(=O)N[C@H]1CC[C@H](NC(=O)c2cnc(-c3cnn4cc(Cl)cnc34)cc2NC(C)C)CC1 [Example 23]
result: 1.8

* * *

Assign EC50 to each entry below.
System: IL-6 levels in human whole blood stimulated with a TLR2 agonist
TEST NAME: IRAK4 Whole Blood Assay (lipoteichoic acid/TLR2-stimulated IL-6)
Type: cell-based
CONDITION PARAMETERS: Homo sapiens, lipoteichoic acid 10 μg/mL, IL-6 readout
Give just the numeric value; nM need not be written.

query: Could you share which EC50 value was measured for "CC(C)(O)[C@H](F)CNC(=O)c1cnc(-c2cnc3cc(C#N)cnn23)cc1Nc1cc2n(n1)CCN(CC(F)F)C2" ?
result: 330

query: Then "CC(C)Nc1cc(-c2cnc3cc(F)cnn23)ncc1C(=O)NC[C@H](F)C(C)(C)O" ?
result: 980

query: What do you get for "CC(F)(F)Cn1ccc(Nc2cc(-c3cnn4cc(C#N)cnc34)ncc2C(=O)NC[C@@H](F)C(C)(C)O)n1" ?
result: 410

query: And what about the compound "COC(=O)N[C@H]1CC[C@H](NC(=O)c2cnc(-c3cnn4cc(Cl)cnc34)cc2Nc2cnn(C)c2)CC1" ?
result: 710

query: Entry "CCn1cc(Nc2cc(-c3cnn4cc(Cl)cnc34)ncc2C(=O)NC[C@@H](F)C(C)(C)O)cn1" please
result: 140

query: Follow-up entry: "Cn1cc(Nc2cc(-c3cnc4cc(C#N)cnn34)ncc2C(=O)NC[C@@H](F)C(C)(C)O)cn1"
result: 590

query: Likewise for "CC(C)Nc1cc(-c2cnn3cc(C#N)cnc23)ncc1C(=O)N[C@H]1CC[C@H](C(C)(C)O)CC1" ?
result: 800

query: Another: "CC(C)Nc1cc(-c2cnn3cc(C#N)cnc23)ncc1C(=O)NCCC(C)(C)C#N"
result: 650

query: Entry to check: "CC(C)(O)[C@H](F)CNC(=O)c1cnc(-c2cnc3cc(C#N)cnn23)cc1NCCC(F)(F)F"
result: 210

query: Can you handle "CC(C)(O)[C@H](F)CNC(=O)c1cnc(-c2cnn3cc(Cl)cnc23)cc1Nc1cnn(C(F)F)c1" next?
result: 340

query: Check CC(F)CCNc1cc(-c2cnn3cc(Cl)cnc23)ncc1C(=O)NC[C@@H](F)C(C)(C)O (some centres unmarked) too.
result: 810

query: Repeat with "CC(C)(O)[C@H](F)CNC(=O)c1cnc(-c2cnn3cc(Cl)cnc23)cc1Nc1cnn(CC2CC2)c1"
result: 410

query: Same thing, different compound: "CC(C)(O)[C@H](F)CNC(=O)c1cnc(-c2cnn3cc(Cl)cnc23)cc1Nc1cnn(C2CCC2)c1"
result: 200

query: // repeat for "CC(C)(O)[C@H](F)CNC(=O)c1cnc(-c2cnc3cc(C#N)cnn23)cc1Nc1cnn(CCCF)c1" and report
result: 290

query: And then "CC(C)(O)[C@H](F)CNC(=O)c1cnc(-c2cnn3cc(Cl)cnc23)cc1NC1CC1" , what is it?
result: 11100

query: What do you get for CC(CCF)Nc1cc(-c2cnn3cc(C#N)cnc23)ncc1C(=O)NC[C@@H](F)C(C)(C)O (some centres unmarked) ?
result: 1030

query: Param item: "CC(C)(O)[C@H](F)CNC(=O)c1cnc(-c2cnn3cc(Cl)cnc23)cc1NC12CC(C1)C2"
result: 1460

query: How about this compound: "CC(C)(CO)Nc1cc(-c2cnn3cc(C#N)cnc23)ncc1C(=O)NC[C@@H](F)C(C)(C)O"
result: 480

query: Please answer likewise for CC(C)(O)[C@H](F)CNC(=O)c1cnc(-c2cnn3cc(Cl)cnc23)cc1NC1CCCOC1 (single isomer, unassigned)
result: 380

query: Repeat with "CC(C)(O)[C@H](F)CNC(=O)c1cnc(-c2cnn3cc(C#N)cnc23)cc1Nc1cnn(C2CC2)c1"
result: 370

query: Repeat with CC(C)Nc1cc(-c2cnc3cc(C#N)cnn23)ncc1C(=O)NCC(F)C1CCNCC1 (centres unmarked)
result: 280

query: // repeat for CC(C)Nc1cc(-c2cnn3cc(Cl)cnc23)ncc1C(=O)NCC(F)C1(O)COC1 (centres unmarked) and report
result: 700

query: Could you do the same for "CC(C)(O)[C@H](F)CNC(=O)c1cnc(-c2cnc3cc(Cl)cnn23)cc1Nc1cnn(CC(F)F)c1" , please?
result: 520

query: One more compound: COC1CC(Nc2cc(-c3cnn4cc(Cl)cnc34)ncc2C(=O)NC[C@@H](F)C(C)(C)O)CC1(F)F (single isomer, unassigned)
result: 4450

query: Same question, CC(O)CCNc1cc(-c2cnn3cc(Cl)cnc23)ncc1C(=O)NC[C@@H](F)C(C)(C)O (some centres unmarked) this time
result: 580

query: Quick one: "CC(C)Cn1cc(Nc2cc(-c3cnn4cc(Cl)cnc34)ncc2C(=O)NC[C@@H](F)C(C)(C)O)cn1"
result: 360

query: // repeat for "COC(C)(C)[C@H]1CC[C@H](NC(=O)c2cnc(-c3cnc4cc(C#N)cnn34)cc2NC(C)C)CC1" and report
result: 710

query: Now the compound "CC(C)(O)[C@H](F)CNC(=O)c1cnc(-c2cnc3cc(C#N)cnn23)cc1Nc1cnn(C2CC2)c1"
result: 210

query: Same read-out for "CC(F)(F)Cn1cc(Nc2cc(-c3cnn4cc(Cl)cnc34)ncc2C(=O)NC[C@@H](F)C(C)(C)O)cn1" ?
result: 350
